Target Entity: UniProtKB Q9GZV3
Sequence (Q9GZV3 whole entry): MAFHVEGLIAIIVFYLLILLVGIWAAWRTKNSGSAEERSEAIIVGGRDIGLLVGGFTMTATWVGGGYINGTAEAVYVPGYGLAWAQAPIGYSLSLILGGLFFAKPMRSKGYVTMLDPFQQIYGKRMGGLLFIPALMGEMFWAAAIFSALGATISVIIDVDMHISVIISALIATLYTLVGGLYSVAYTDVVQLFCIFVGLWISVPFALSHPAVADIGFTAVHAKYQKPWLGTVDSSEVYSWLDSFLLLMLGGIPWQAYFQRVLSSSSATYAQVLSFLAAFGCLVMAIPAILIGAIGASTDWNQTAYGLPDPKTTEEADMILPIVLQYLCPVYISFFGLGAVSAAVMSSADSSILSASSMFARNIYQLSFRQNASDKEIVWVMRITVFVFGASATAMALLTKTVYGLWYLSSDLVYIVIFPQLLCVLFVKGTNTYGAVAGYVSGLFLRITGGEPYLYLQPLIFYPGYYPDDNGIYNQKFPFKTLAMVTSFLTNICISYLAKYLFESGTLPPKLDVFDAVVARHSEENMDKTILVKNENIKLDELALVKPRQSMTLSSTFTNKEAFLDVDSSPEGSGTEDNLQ
Measurement Description: CHT inhibitors, dose response, cell-based, 5-point CRC, membrane potential dye (AID 504840)
Assay type: functional
Active and inactive are the calls of the source.
Property Label: IC50

Example cases with answers are listed next.
INSERT INTO assay_data (compound, property_label, observed_measurement) VALUES
  ('C[C@H](NC(=O)OC(C)(C)C)c1nnc(SCC(=O)c2ccc(Cl)cc2)o1', 'IC50', '1.91 µM (active)'),
  ('COc1ccc(-n2c(=S)[nH]c3cc(C(=O)NCCCN4CCOCC4)ccc3c2=O)cc1', 'IC50', '10.3 µM (active)'),
  ('Cc1[nH]n(-c2ccccc2)c(=O)c1C(c1ccc([N+](=O)[O-])cc1)c1c(C)[nH]n(-c2ccccc2)c1=O', 'IC50', '10.3 µM (active)');

Please look at the following compound next.
Need IC50 of CCC1CCCCN1S(=O)(=O)c1ccc(NC(=O)c2nc(S(C)(=O)=O)ncc2Cl)cc1 (centres undefined) , thanks.
15.8 µM (active)

====

# IC50 per entry
Target Entity: Nonstructural protein 1 (Influenza A virus)
Sequence (Q194T2 whole entry): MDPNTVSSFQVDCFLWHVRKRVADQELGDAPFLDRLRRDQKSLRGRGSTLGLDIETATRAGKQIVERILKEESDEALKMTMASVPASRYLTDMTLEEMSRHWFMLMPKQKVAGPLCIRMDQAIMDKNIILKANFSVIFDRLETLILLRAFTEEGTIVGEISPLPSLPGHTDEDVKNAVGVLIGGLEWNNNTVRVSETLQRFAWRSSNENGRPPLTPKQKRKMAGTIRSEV
Assay type: functional, Influenza A virus (A/California/07/2009(H1N1))
The source made the active and inactive calls.

// below: answered compounds
INSERT INTO measurements (compound, property_label, observed_measurement) VALUES
  ('N=C(N)N/N=C/c1ccc(OCc2ccccc2)c(OCc2ccccc2)c1', 'IC50', '49 µM (active)'),
  ('O=C(N/N=C/c1cc(O)ccc1Br)c1cccnc1', 'IC50', '6.35 µM (active)'),
  ('O=C(O)c1ccc(N2C(=O)/C(=C/c3ccc(-c4ccc([N+](=O)[O-])cc4)o3)C=C2c2ccccc2)cc1', 'IC50', '6.04 µM (active)');

What IC50 value was documented for this compound, Cc1ccc2nc(O)c(C3C(C#N)=C(N)Oc4c3ccc3cccnc43)cc2c1 (stereo unspecified) ?
46.8 µM (active)

What value of IC50 has been reported for the following compound? "CC(=O)c1cccc2c1N=C(c1[nH]c3ccccc3c1O)C2=O"
13.9 µM (active)

Please report the recorded IC50 for COc1cccc(C(NC(C)=O)c2ccc3cccnc3c2O)c1 (stereo unspecified) .
14.3 µM (active)

====

Target Entity: Peroxisome proliferator-activated receptor gamma/Nuclear receptor coactivator 2 (Homo sapiens, UniProt P37231)
Sequence (P37231 whole entry): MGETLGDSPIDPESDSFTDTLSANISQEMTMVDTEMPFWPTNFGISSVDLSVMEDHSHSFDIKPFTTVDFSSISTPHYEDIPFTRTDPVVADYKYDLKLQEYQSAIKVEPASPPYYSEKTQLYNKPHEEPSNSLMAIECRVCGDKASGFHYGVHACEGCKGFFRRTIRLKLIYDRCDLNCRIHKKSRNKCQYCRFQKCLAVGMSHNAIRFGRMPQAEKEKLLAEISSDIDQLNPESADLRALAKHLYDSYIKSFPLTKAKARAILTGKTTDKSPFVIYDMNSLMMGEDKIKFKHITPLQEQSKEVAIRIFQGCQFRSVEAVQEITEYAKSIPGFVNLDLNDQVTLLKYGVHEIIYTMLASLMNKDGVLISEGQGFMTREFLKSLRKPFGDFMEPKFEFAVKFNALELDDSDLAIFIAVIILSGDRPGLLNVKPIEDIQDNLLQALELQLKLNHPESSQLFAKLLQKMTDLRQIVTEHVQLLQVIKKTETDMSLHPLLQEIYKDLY
Sequence (Q15596 whole entry, further chain): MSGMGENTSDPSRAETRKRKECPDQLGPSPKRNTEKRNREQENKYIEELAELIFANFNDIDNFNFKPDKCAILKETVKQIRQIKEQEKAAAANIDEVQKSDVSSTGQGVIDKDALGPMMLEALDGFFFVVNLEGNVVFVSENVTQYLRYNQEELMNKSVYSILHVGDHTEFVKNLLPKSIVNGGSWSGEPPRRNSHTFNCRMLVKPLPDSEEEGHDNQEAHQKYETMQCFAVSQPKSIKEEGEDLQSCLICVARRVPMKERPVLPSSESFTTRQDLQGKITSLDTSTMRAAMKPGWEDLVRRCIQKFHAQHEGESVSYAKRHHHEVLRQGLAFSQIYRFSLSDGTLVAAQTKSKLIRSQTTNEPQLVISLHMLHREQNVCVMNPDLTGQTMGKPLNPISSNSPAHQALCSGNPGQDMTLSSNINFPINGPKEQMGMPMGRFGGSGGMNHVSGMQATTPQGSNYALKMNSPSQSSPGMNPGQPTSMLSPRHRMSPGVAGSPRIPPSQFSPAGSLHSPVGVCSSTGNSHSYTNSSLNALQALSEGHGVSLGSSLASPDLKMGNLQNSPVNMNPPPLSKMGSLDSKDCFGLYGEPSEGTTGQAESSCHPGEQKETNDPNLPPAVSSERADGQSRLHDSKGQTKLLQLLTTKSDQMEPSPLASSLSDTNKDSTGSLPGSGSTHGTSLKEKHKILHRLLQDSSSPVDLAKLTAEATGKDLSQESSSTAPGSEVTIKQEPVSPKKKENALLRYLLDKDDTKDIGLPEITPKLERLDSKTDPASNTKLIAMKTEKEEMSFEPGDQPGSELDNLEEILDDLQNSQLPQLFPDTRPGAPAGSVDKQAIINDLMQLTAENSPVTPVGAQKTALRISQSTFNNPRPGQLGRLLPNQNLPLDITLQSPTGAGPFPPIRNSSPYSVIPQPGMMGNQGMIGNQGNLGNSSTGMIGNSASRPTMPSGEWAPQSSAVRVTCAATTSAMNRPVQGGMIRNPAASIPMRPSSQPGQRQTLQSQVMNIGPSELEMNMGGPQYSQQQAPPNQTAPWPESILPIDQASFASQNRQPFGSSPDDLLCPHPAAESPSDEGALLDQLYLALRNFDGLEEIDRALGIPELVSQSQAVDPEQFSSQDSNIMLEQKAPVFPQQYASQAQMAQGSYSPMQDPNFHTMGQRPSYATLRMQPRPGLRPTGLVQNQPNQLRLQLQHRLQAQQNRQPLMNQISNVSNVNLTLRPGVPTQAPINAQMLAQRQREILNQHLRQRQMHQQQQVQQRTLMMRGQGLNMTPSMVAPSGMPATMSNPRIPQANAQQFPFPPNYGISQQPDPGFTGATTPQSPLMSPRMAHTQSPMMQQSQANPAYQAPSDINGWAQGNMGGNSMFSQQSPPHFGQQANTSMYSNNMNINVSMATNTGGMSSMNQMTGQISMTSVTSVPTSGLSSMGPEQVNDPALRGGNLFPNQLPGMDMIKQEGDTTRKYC
Measurement Description: TR-FRET dose response biochemical High Throughput Screening assay for agonists of the steroid receptor coactivator 2 (SRC-2) recruitment by the peroxisome proliferator-activated receptor gamma (PPAR gamma): non-selective agonists. [Related pubchem assays: 1297, 1032 ]
Type: functional
Calls of active or inactive are those of the source.
Property Label: EC50

Consider the molecule shown here: "N#CCCN1CCN(C(=S)c2ccc(-c3ccc(Cl)cc3)o2)CC1" What is its recorded EC50?
> 79.4 µM (not active)

So what does the record say about EC50 for "CCn1c(=O)cc(SCC(=O)N2CCN(c3ccccc3OC)CC2)c2ccccc21" ?
> 79.4 µM (not active)

Find the recorded EC50 belonging to "Cc1cc2cc(CNC(=O)c3ccc(S(=O)(=O)N4CCOCC4)cc3)ccc2n1C" and report it.
6.71 µM (active)

Recorded EC50 for CCC(OC(=O)c1cc2sccc2n1C)C(=O)NCc1ccco1 (centres undefined) , please?
> 26.5 µM (not active)

====

Target Entity: Corticotropin-releasing factor receptor 2/Corticotropin-releasing factor-binding protein (Homo sapiens, UniProt P24387+Q13324)
Sequence (Q13324 whole entry): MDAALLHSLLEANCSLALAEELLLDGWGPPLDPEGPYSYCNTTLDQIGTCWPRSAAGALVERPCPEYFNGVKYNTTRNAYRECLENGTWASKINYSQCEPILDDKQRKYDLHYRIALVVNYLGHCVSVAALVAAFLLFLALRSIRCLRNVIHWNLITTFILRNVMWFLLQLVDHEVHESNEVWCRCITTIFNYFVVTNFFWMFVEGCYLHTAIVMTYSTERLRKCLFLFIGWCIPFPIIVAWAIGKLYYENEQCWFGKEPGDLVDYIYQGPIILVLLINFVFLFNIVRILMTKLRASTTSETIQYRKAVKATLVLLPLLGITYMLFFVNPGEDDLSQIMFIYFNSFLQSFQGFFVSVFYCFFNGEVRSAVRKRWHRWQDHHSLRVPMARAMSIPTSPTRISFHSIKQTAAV
Sequence (P24387 whole entry): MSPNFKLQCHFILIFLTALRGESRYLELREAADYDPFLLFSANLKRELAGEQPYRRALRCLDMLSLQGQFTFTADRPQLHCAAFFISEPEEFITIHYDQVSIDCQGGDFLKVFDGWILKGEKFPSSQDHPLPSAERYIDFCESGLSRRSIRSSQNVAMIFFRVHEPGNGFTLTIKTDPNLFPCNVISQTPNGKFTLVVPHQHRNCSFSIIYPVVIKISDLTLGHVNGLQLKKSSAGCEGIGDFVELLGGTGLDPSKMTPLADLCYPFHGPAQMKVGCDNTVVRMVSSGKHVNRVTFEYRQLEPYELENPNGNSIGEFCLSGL
Measurement Description: activators of CRF receptor 2 with binding protein – uHTS hits, confirmation (AID 602473)
Assay type: functional
Run Parameters: read-out: EC50_Mean
Active and inactive are the calls of the source.
Please reply with one of these outcomes: active, inactive

Example entries and their recorded answers appear below.
INSERT INTO results (molecule, class_assignment) VALUES
  ('O=C(ON=C1CCN(c2ccc([N+](=O)[O-])cc2)CC1)c1ccccc1', 'inactive'),
  ('CCOC(=O)c1[nH]c2ccccc2c1NC(=O)Nc1ccc(OC)cc1', 'inactive');

State the result this test recorded for "COC(=O)c1c(NC(=O)c2ccco2)sc2c1CCN(C(C)C)C2" .
inactive

// param item: "Cc1ccc(NC(=O)CSc2nc3ccccc3c(=O)n2CCCC(=O)NCCCN2CCOCC2)cc1" ; yields the recorded call
inactive

Could you kindly confirm the outcome this assay logged for "COc1ccc(OCCCC(=O)Nc2cccnc2)cc1" ?
inactive

Answer briefly: the call reported for "O=C(COC(=O)c1ccncc1)Nc1cc(Cl)ccc1Cl" in this assay.
inactive

// param item: CC(C)C(NC(=O)c1ccco1)C(=O)NC1CCCCCC1 (configuration not stated) ; yields the recorded call
inactive

For "COCCN1Cc2cccc(C(=O)Nc3cc(OC)ccc3OC)c2C1=O" , which call appears in the assay record?
inactive

// outcome(item) with item = "Cc1nn(Cc2ccccc2Cl)c(C)c1NC(=O)c1nc2ncccn2n1"
inactive

# lookup: test call for "CCOc1ccccc1N(C)C(=O)Cn1ncc2c3ccccc3nc-2c1O"
inactive

====

Here the recorded IC50 is given for each entry.
Target Entity: DNA dC->dU-editing enzyme APOBEC-3G (Homo sapiens, UniProt Q9HC16)
Sequence (Q9HC16 whole entry): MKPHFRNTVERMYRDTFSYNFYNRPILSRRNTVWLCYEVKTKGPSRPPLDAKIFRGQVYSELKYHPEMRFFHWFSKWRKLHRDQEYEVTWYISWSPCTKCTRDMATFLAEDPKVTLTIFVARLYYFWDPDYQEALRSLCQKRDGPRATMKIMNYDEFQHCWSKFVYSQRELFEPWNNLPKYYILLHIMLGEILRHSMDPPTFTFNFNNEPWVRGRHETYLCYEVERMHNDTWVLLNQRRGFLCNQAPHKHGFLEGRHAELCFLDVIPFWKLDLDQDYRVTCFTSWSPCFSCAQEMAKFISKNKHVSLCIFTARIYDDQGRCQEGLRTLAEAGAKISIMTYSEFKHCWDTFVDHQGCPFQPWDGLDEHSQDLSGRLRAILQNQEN
Measurement Description: Dose Response confirmation of small molecule APOBEC3G DNA Deaminase Inhibitors via a fluorescence-based single-stranded DNA deaminase assay. [Related pubchem assays (depositor defined):AID493012, AID493028]
Format: functional
Active and inactive are the calls of the source.

INSERT INTO measurements (molecule, observed_measurement) VALUES
  ('COc1cc(/C=N/n2c(S)nnc2-c2[nH]nc3c2CCC3)ccc1O', '1.56 µM (active)');

Now, please, on to the next molecule.
So what's the measured IC50 for this one? "CCOc1ccc2nc(NC(=S)N(C)C)sc2c1"
62.4 µM (active)

====

Tested on: Streptococcus sp. 'group A'
Measurement Description: growth inhibition of control SK(-) GAS strain, dose response, counter-screen for streptokinase expression inhibitor project, luminescence, kanamycin, BacTiterGlo, confirmation (AID 1900)
Assay type: functional, organism-based
The source made the active and inactive calls.
Listing: EC50 of selected molecules

Some molecules with recorded EC50:
INSERT INTO results (compound, property_label, observed_measurement) VALUES
  ('O=C(/C=C/c1cccc([N+](=O)[O-])c1)c1ccc([N+](=O)[O-])o1', 'EC50', '2.33 µM (active)'),
  ('CCc1nnc(NC(=O)c2ccc(S(=O)(=O)N(C)c3ccccc3)cc2)o1', 'EC50', '7.35 µM (active)'),
  ('COc1cc2c(C#N)c(N3CCN(c4ccccc4OC)CC3)nc(N)c2c(N)n1', 'EC50', '4.63 µM (active)');

Now look at this one.
I am curious: what EC50 value has been reported for "COc1cc2oc3ccc(C#Cc4ccc(N)cc4)cc3c(=O)c2cc1OC" ?
1.18 µM (active)

====

Measurement Description: Shn3 3'UTR reporter inhibitors, dose response, cell-based, Clone20 osteoblasts, firefly luciferase, cherry-picked (AID 624132);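 also: firefly luciferase luminescence from reporter carrying the Shn3 3'UTR in osteoblasts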
Type: functional
Calls of active or inactive are those of the source.
Property Label: AC50

Record excerpt, results attached:
INSERT INTO assay_data (compound, observed_measurement) VALUES
  ('O=C(NCc1ccc2c(c1)OCO2)c1nc(S(=O)(=O)Cc2ccccc2)ncc1Cl', '6400 nM (active)'),
  ('Cc1ccccc1C(=O)NC(=S)Nc1ccc(N2CCN(C(=O)c3ccccc3)CC2)cc1', '1880 nM (active)'),
  ('O=C(CSc1c2c(nc3ccc(Cl)cc13)CCCC2)N1CCN(C(=O)c2ccco2)CC1', '3750 nM (active)');

Give the measured AC50 of "COc1cc(SC)ccc1C(=O)Nc1nc2ccccc2[nH]1" .
< 260 nM (active)
